B1: HEEH_KT_rd6_3546 (parent)
chain: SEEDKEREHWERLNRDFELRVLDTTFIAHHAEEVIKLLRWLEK

Variants of: B1
protocol.details: folding stability dG (cDNA display proteolysis); higher = more stable
condition.summary: PBS, room temperature
observable: folding stability dG (kcal/mol)

- E6Q: 1.48
- L37H: 0.36
- A31R: 1.07
- H9Y: 1.65
- E8M: 1.73
- E3R: 1.48
